Biological target: Protein kinase C alpha type (Homo sapiens)
Settings: at 1 µM

>  <Structure as smiles>
COC(=O)[C@@]1(O)C[C@H]2O[C@]1(C)n1c3ccccc3c3c4c(c5c6ccccc6n2c5c31)C(=O)NC4

>  <residual activity, %>
19

$$$$
>  <Structure as smiles>
O=c1[nH]c2ccccc2n1C1CCN(Cc2ccc(-c3nc4cc5[nH]cnc5cc4nc3-c3ccccc3)cc2)CC1

>  <residual activity, %>
104

$$$$
>  <Structure as smiles>
O=[N+]([O-])/C=C/c1ccc2c(c1)OCO2

>  <residual activity, %>
111

$$$$
>  <Structure as smiles>
COc1ccc2c(c[n+](C)c3c4cc5c(cc4ccc23)OCO5)c1OC

>  <residual activity, %>
110

$$$$
>  <Structure as smiles>
COc1cc2ncnc(Nc3ccc(OCc4ccccc4)cc3)c2cc1OC

>  <residual activity, %>
117

$$$$
>  <Structure as smiles>
CCn1cnc2c(Nc3cccc(Cl)c3)nc(N[C@@H]3CCCC[C@@H]3N)nc21

>  <residual activity, %>
89

$$$$
>  <Structure as smiles>
O=C1NC(=O)c2c1c1c3ccccc3n3c1c1c2c2ccccc2n1C1CCC3O1

>  <residual activity, %>
96

$$$$
